Values were extracted from paper PMC4666376.

target.desc: PAI-1 wild type, active (human, UniProt P05121 24-402)
Sequence (P05121 24-402): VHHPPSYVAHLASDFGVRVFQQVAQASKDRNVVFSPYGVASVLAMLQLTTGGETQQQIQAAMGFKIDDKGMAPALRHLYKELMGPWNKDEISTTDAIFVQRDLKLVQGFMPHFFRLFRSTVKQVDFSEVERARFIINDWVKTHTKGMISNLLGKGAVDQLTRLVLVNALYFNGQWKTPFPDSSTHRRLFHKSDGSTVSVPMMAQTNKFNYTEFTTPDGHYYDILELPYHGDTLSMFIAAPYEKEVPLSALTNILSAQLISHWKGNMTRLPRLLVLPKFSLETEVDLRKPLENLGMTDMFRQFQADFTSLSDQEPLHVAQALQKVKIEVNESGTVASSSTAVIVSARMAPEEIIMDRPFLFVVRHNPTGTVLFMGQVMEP
protocol.summary: branched SELEX with high-throughput sequencing; PAI-1 immobilised on polyclonal anti-PAI-1 antibody; HBS (10 mM HEPES pH 7.4, 140 mM NaCl), 2 mM MgCl2, 2 mM CaCl2, 0.1% BSA; RNA pool 100 nM; PAI-1 captured on antibody-coated wells; 45 min; binding temperature not stated (PAI-1 capture at room temperature); high values mean tight binding;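 further: Pool frequency after one selection round with this target divided by frequency before selection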
test.settings: protein: recombinant; tags: N-terminal His6; structured_RNA; 2'-F pyrimidines
sequences and their reported log10(binding signal)
measurement.kind: log10(binding signal) (log10 of the value in enrichment factor)

INSERT INTO measurements (ordered_residues, endpoint_result) VALUES
  ('GGGGCCACCAACGACAUUGGUAAUGGUGUGAAUUAACCUUAAGCCUAUUGGUUGUUGAUAUAAAUAGUGCCCAUGGAUC', -0.66),
  ('GGGGCCACCAACGACAUUGAUCAACGAUCACCAUGAUACACAUGGAUCACGUAGUUGAUAUAAAUAGUGCCCAUGGAUC', -0.21),
  ('GGGGCCACCAACGACAUUUAAGUUCGUCUCACUGACUCUGCAGUGAGUCUAAUGUUGAUAUAAAUAGUGCCCAUGGAUC', 0.88),
  ('GGGGCCACCAACGACAUUGCGCUACGAUCAAAACACGUAGUAGUGCAACGAAUGUUGAUAUAAAUAGUGCCCAUGGAUC', -0.54),
  ('GGGGCCACCAACGACAUUAAGUUUCGUCCGGAUCGUGCAAUCCGGUCUAUGUGGUUGAUAUAAAUAGUGCCCAUGGAUC', 0.60),
  ('GGGGCCACCAACGACAUUACGUAGCUGGGUUUCACCAGCGAUUAGUUGUUGAUAUAAAUAGUGCCCAUGGAUC', -0.15),
  ('GGGGCCACCAACGACAUUCAGCGAUGUAGUGCACAUUGCACGACCAUGAUGGAGUUGAUAUAAAUAGUGCCCAUGGAUC', -0.28),
  ('GGGGCCACCAACGACAUUUCCGUGAGGAUCUAUGUUGUGGAAAACAACAGUUCGUUGAUAUAAAUAGUGCCCAUGGAUC', 0.04),
  ('GGGGCCACCAACGACAUUGAUGAUCACUGUUUCGCGCAGUGCCGUAUAUCGAUGUUGAUAUAAAUAGUGCCCAUGGAUC', 0.64),
  ('GGGGCCACCAACGACAUUAAGUUCGUCCCGCAUGGUACGAUGCGGGUCUAUGCGUUGAUAUAAAUAGUGCCCAUGGAUC', 0.81),
  ('GGGGCCACCAACGACAUUGCCGUAGUGCAGGGUUGCUUGCAUGAUCAAUUGUUGUUGAUAUAAAUAGUGCCCAUGGAUC', 0.32),
  ('GGGGCCACCAACGACAUUGUGACCCACCAUUAUAUGGUGACUAGUAGCGUGUUGUUGAUAUAAAUAGUGCCCAUGGAUC', -0.77),
  ('GGGGCCACCAACGACAUUUACGCACCGUAGACUUAAUAGUCGAUUAGUACAUGUUGAUAUAAAUAGUGCCCAUGGAUC', 0.08),
  ('GGGGCCACCAACGACAUUGACUCCUAGUUAUACCGAUUAGGACUUGUAGAUGCGUUGAUAUAAAUAGUGCCCAUGGAUC', -0.59),
  ('GGGGCCACCAACGACAUUACACUGUAGAGAAUACCCAAUUCUCGACUAGAUGCGUUGAUAUAAAUAGUGCCCAUGGAUC', -0.13);
